B1: LRRC45 (parent)
chain: DLSAANEKNLLLQNQVDELERKFR

Variants of: B1
EXPERIMENT_NOTES: protein stability index of a GFP-peptide fusion (GPS, HEK-293T) (PSI 1-6); higher = more stable;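 note: lentivirally expressed fusions sorted by FACS into six bins by GFP to DsRed ratio, PSI derived from sequencing read proportions per bin multiplied by bin number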
RUN_CONDITIONS: c terminus: a fixed tail appended
Here, each record is paired with measured protein stability index data.
MEASURED_ENDPOINT: protein stability index

INSERT INTO results (residue_sequence, reading) VALUES
  ('DLSAENEKNLLLQNQVDELERKFR [A5E]', 4.01),
  ('FLSAANEKNLLLQNQVDELERKFR [D1F]', 4.09),
  ('DLSAANEKKLLLQNQVDELERKFR [N9K]', 4.11),
  ('DVSAANEKNLLLQNQVDELERKFR [L2V]', 3.89),
  ('DLSAANEKNLLLGNQVDELERKFR [Q13G]', 4.11),
  ('DLSAANEKNLLLQNQVKELERKFR [D17K]', 3.55),
  ('DLSAANEKNLLLQNQVDGLERKFR [E18G]', 3.67),
  ('DLSAANEKNLLLQNQVDELECKFR [R21C]', 3.74),
  ('DLSAHNEKNLLLQNQVDELERKFR [A5H]', 4.16),
  ('DLSADNEKNLLLQNQVDELERKFR [A5D]', 3.69),
  ('DLSAANERNLLLQNQVDELERKFR [K8R]', 4.15),
  ('DLSAANEKNLLLVNQVDELERKFR [Q13V]', 4.53),
  ('DLSAANEKNLLLQNQVDELEEKFR [R21E]', 4.56),
  ('DLSAANEKNLLLQGQVDELERKFR [N14G]', 4.11),
  ('DLSAANFKNLLLQNQVDELERKFR [E7F]', 2.88),
  ('DLSAANEKNLLLQNQVDELERMFR [K22M]', 3.34),
  ('DLSAAWEKNLLLQNQVDELERKFR [N6W]', 3.37),
  ('DLSAANEKILLLQNQVDELERKFR [N9I]', 4.21),
  ('DLSAANEKNLLLQNQNDELERKFR [V16N]', 4.24),
  ('DLSAANEKNLLLQNQMDELERKFR [V16M]', 3.79),
  ('DLSAAPEKNLLLQNQVDELERKFR [N6P]', 4.62),
  ('DLSAANEKNLLGQNQVDELERKFR [L12G]', 4.03),
  ('DLSAANEKNLLLQNQVDELERKFG [R24G]', 4.48),
  ('DLSAANEKNLLLQNQRDELERKFR [V16R]', 4.17),
  ('DLSAANEKNLLLQNQVDELEREFR [K22E]', 4.26),
  ('DLSAANEKNLLLQPQVDELERKFR [N14P]', 3.69),
  ('DLSAANEKNLLLQQQVDELERKFR [N14Q]', 4.49),
  ('DWSAANEKNLLLQNQVDELERKFR [L2W]', 4.27),
  ('DESAANEKNLLLQNQVDELERKFR [L2E]', 5.13),
  ('DLSAANEKNLLHQNQVDELERKFR [L12H]', 4),
  ('DLSAANEKNLLLQNQVDELERKFW [R24W]', 3.52),
  ('ILSAANEKNLLLQNQVDELERKFR [D1I]', 3.93),
  ('DLSAANEKNLLLQNQVDEYERKFR [L19Y]', 3.48),
  ('DLSAANEKNFLLQNQVDELERKFR [L10F]', 3.94),
  ('DLSAANEKNLLLQNQVDELERKER [F23E]', 5.34),
  ('DLSAANEKNLLLQNQVEELERKFR [D17E]', 4.39),
  ('DLSAANEKNLLLQNQVDELERKFK [R24K]', 4.66),
  ('DLSAANEKNLLLQNQLDELERKFR [V16L]', 4.05),
  ('DLSAPNEKNLLLQNQVDELERKFR [A5P]', 4),
  ('DLSKANEKNLLLQNQVDELERKFR [A4K]', 4.36);
